These entries and their values trace back to ChEMBL document CHEMBL1155874.

Target: UniProtKB P07451
Test: Activation of human recombinant CA3 at 10 uM by stopped-flow CO2 hydration method
parameterMeasured: log10(Ka) (log10 of the value in µM)
Please interpret these as log10 of Ka where Ka is in µM.

The following molecules have reported results that may help.
NCCc1c[nH]cn1; 1.57
N[C@H](Cc1c[nH]cn1)C(=O)O; 0.05
NCc1ccccn1; 0.01
N[C@@H](Cc1c[nH]cn1)C(=O)O; 1.56
N[C@H](Cc1c[nH]c2ccccc12)C(=O)O; 1.28

Hey, can you go through the list below and give me log10(Ka) for every item?
1. N[C@@H](Cc1c[nH]c2ccccc12)C(=O)O
2. NCCc1ccccn1

[1.31, 0.04]

Hey, can you go through the list below and give me log10(Ka) for every item?
1. NCCc1c[nH]c2ccc(O)cc12
2. NCCN1CCNCC1
3. N[C@H](Cc1ccc(O)c(O)c1)C(=O)O

-0.11
-0.49
1.46

###

Could you please report measured Ka for the items listed next?
Molecular target: Carbonic anhydrase 4 (Homo sapiens)
Experiment: Activation of human recombinant truncated CA4 at 10 uM by stopped-flow CO2 hydration method
Give bare numbers, in µM.

The following compounds have reported results that may help.
NCc1ccccn1; 5.19
N[C@H](Cc1c[nH]cn1)C(=O)O; 12.3
NCCc1ccc(O)c(O)c1; 30.9
N[C@@H](Cc1c[nH]c2ccccc12)C(=O)O; 37.1
NCCc1c[nH]c2ccc(O)cc12; 3.14

Hey, can you go through the list below and give me Ka for every item?
1. Nc1ccc(C[C@H](N)C(=O)O)cc1
2. NCCc1ccccn1
3. N[C@@H](Cc1ccc(O)cc1)C(=O)O
4. NCCN1CCOCC1

0.079
7.13
25.1
1.3

Hey, can you go through the list below and give me Ka for every item?
1. N[C@@H](Cc1ccc(O)c(O)c1)C(=O)O
2. CNCC(O)c1ccc(O)c(O)c1 (single isomer, unassigned)

15.3
45

Hey, can you go through the list below and give me Ka for every item?
1. N[C@H](Cc1ccc(O)c(O)c1)C(=O)O
2. N[C@H](Cc1c[nH]c2ccccc12)C(=O)O
3. N[C@@H](Cc1c[nH]cn1)C(=O)O
4. NCCc1c[nH]cn1
5. NCCN1CCNCC1

1. 34.7
2. 39.6
3. 7.3
4. 25.3
5. 24.9

###

Could you please report measured Ka for the items listed next?
Target: Carbonic anhydrase 3 (Homo sapiens) (UniProt P07451)
Sequence (P07451 whole entry): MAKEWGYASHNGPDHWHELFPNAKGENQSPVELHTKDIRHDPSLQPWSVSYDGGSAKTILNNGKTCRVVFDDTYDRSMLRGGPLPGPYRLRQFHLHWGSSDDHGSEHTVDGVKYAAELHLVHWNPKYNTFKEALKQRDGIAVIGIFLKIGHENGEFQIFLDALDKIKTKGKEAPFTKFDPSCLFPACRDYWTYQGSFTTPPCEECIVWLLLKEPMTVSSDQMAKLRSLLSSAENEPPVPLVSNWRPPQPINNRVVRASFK
Experiment: Activation of human recombinant CA3 at 10 uM by stopped-flow CO2 hydration method
One number for each entry, in µM.

The following molecules have reported results that may help.
NCCN1CCOCC1; 0.091
Nc1ccc(C[C@H](N)C(=O)O)cc1; 43.2
N[C@@H](Cc1ccc(O)cc1)C(=O)O; 34.1
N[C@@H](Cc1ccc(O)c(O)c1)C(=O)O; 13.5
NCCc1ccc(O)c(O)c1; 33.2

Would you kindly look at the next entry?
Consider the molecule CNCC(O)c1ccc(O)c(O)c1 (single isomer, unassigned) and give its recorded Ka.
36.4
